# ASSAY PROTOCOL: Antagonist activity at PAR1 in human platelets assessed as inhibition of haTRAP-induced platelet aggregation
PROPERTY LABEL: IC50

SMILES ENTRY | OBSERVED MEASUREMENT
CCOC(=O)N[C@@H]1CC[C@@H]2[C@@H](C1)C[C@H]1C(=O)O[C@H](C)[C@H]1[C@H]2C=Cc1ccc(-c2cccc(F)c2)cn1 | 25 nM

----------
# ASSAY PROTOCOL: Antagonist activity at PAR1 in human platelets assessed as inhibition of thrombin-induced platelet aggregation
pIC50: −log10 of the molar value.

SMILES ENTRY | pIC50
CCOC(=O)N[C@@H]1CC[C@@H]2[C@@H](C1)C[C@H]1C(=O)O[C@H](C)[C@H]1[C@H]2C=Cc1ccc(-c2cccc(F)c2)cn1 | 7.33

Origin of measurements: BindingDB's records for doi:10.1021/jm800180e
